meta.source: paper PMC10896388

- Tested on: wild-type (AB) zebrafish (Danio rerio)
- Assay Text: Maximum tolerated concentration (MTC) determination in zebrafish larvae
- Format: in vivo
- Experimental Conditions: 5 dpf zebrafish larvae; after 24-hr exposure
Record 1 whenever MTC (maximum tolerated concentration) is at 10 µM or higher; record 0 when lower.

Some entries whose results are on file:
Molecule	Category Label
COc1cc(CN2C(=O)C(=O)c3ccccc32)cc(OC)c1OC	1
CCCCc1oc2ccccc2c1C(=O)c1cc(I)c(OCCNCC)c(I)c1.Cl	0
COc1ccc(CN2C(=O)C(=O)c3ccccc32)cc1Br	1
COc1c(Br)cc(CN2C(=O)C(=O)c3ccccc32)cc1Br	1

Lookup: Does the molecule `COc1c(I)cc(CN2C(=O)C(=O)c3ccccc32)cc1I` have recorded MTC (maximum tolerated concentration) that is 10 µM or more?
Found: 1

Lookup: Does the molecule `COc1ccc(CN2C(=O)C(=O)c3ccccc32)cc1F` have recorded MTC (maximum tolerated concentration) that is 10 µM or more?
Found: 1

Lookup: Does the molecule CCCCc1oc2ccccc2c1C(=O)c1cc(I)c(O)c(I)c1 [Compound 3, reference compound] have recorded MTC (maximum tolerated concentration) that is 10 µM or more?
Found: 0

Lookup: Does the molecule CCCCc1oc2ccccc2c1C(=O)c1ccc(O)cc1 [Compound 4, reference compound] have recorded MTC (maximum tolerated concentration) that is 10 µM or more?
Found: 0

Lookup: Does the molecule `CCCCc1oc2ccccc2c1C(=O)c1ccc(OCCN(CC)CC)cc1` have recorded MTC (maximum tolerated concentration) that is 10 µM or more?
Found: 0

Lookup: Does the molecule CCCCc1oc2ccccc2c1C(=O)c1cc(I)c(OCC[N+](CC)(CC)CC)c(I)c1 [Compound 2, N-ethyl amiodarone, reference compound] have recorded MTC (maximum tolerated concentration) that is 10 µM or more?
Found: 0

----------
- Test system: wild-type (AB) zebrafish (Danio rerio)
- Assay Text: Maximum tolerated concentration (MTC) determination in zebrafish larvae
- Format: in vivo
- Experimental Conditions: 5 dpf zebrafish larvae; after 24-hr exposure
Let's look at some compounds and their measured MTC (maximum tolerated concentration).

Compound	MTC (maximum tolerated concentration)
CCCCc1oc2ccccc2c1C(=O)c1cc(I)c(OC)c(I)c1 [Compound 6b]	30 µM
O=C1C(=O)N(Cc2ccc(O)cc2)c2ccccc21 [Compound 10, 1-(4-hydroxybenzyl)indoline-2,3-dione]	10 µM
O=C1C(=O)N(Cc2cc(F)c(F)c(F)c2)c2ccccc21 [Compound 8i]	10 µM
CCCCc1oc2ccccc2c1C(=O)c1ccc(OC)cc1 [Compound 6a]	3 µM
COc1c(Cl)cc(CN2C(=O)C(=O)c3ccccc32)cc1Cl [Compound 8e]	100 µM
CCN(CC)CCOc1c(Br)cc(CN2C(=O)C(=O)c3ccccc32)cc1Br.Cl [Compound 8l]	10 µM

Next item in the queue.
Lookup: Which measured MTC (maximum tolerated concentration) value corresponds to COc1c(F)cc(CN2C(=O)C(=O)c3ccccc32)cc1F [Compound 8g] ?
Found: 30 µM

----------
- Tested on: wild-type (AB) zebrafish (Danio rerio)
- Assay Text: animal or person
- Type: in vivo
- Experimental Conditions: zebrafish; apparently MTC / MEC
The label Criterion met is reserved for Therap. Index strictly under 10; Criterion not met covers values equal to or above it.

Some entries whose results are on file:
Molecule	Category Label
COc1c(I)cc(CN2C(=O)C(=O)c3ccccc32)cc1I [Compound 8a]	Criterion not met
CCCCc1oc2ccc(NS(C)(=O)=O)cc2c1C(=O)c1ccc(OCCCN(CCCC)CCCC)cc1 [Dronedarone, reference compound]	Criterion met
CCCCc1oc2ccccc2c1C(=O)c1ccc(OCCN(CC)CC)cc1 [Compound 6c]	Criterion not met
CCN(CC)CCOc1c(Br)cc(CN2C(=O)C(=O)c3ccccc32)cc1Br.Cl [Compound 8l]	Criterion met
COc1cc(CN2C(=O)C(=O)c3ccccc32)cc(OC)c1OC [Compound 8k]	Criterion not met

Lookup: Bench note: check whether COc1c(F)cc(CN2C(=O)C(=O)c3ccccc32)cc1F [Compound 8g] shows Therap. Index below 10
Found: Criterion not met

Lookup: Bench note: check whether CCCCc1oc2ccccc2c1C(=O)c1cc(I)c(OCCNCC)c(I)c1.Cl [Compound 1] shows Therap. Index below 10
Found: Criterion met

Lookup: Bench note: check whether COc1ccc(CN2C(=O)C(=O)c3ccccc32)cc1Cl [Compound 8f] shows Therap. Index below 10
Found: Criterion met

Lookup: Bench note: check whether COc1c(Cl)cc(CN2C(=O)C(=O)c3ccccc32)cc1Cl [Compound 8e] shows Therap. Index below 10
Found: Criterion not met

Lookup: Bench note: check whether O=C1C(=O)N(Cc2ccc(O)cc2)c2ccccc21 [Compound 10, 1-(4-hydroxybenzyl)indoline-2,3-dione] shows Therap. Index below 10
Found: Criterion met

Lookup: Bench note: check whether COc1ccc(CN2C(=O)C(=O)c3ccccc32)cc1Br [Compound 8d] shows Therap. Index below 10
Found: Criterion not met
